# assay procedure: chemical genetic growth profiling, strain panel (AID 1159580);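 note: tested at 20 µM; growth read once vehicle control cultures reached saturation at 30 °C; 1 = growth at the plate median or of vehicle wells; lower values mean less growth of the strain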
# protocol conditions: S. cerevisiae deletion strains, growth OD, locus YLL026W, active compounds read low
In all, about 5,500 compounds went through this assay and about 2,000 (36%) were called active. About 18% were inconclusive and are not listed. Some of the results follow.
Consider the following molecules and their measured normalized growth readings.
Write no unit; give the number alone.

Past entries and their recorded results:
{"molecule": "CC1=NCCc2c1[nH]c1cc(O)ccc21", "recorded number": 0.992}
{"molecule": "COc1cc([C@@H]2c3cc4c(cc3[C@H](OC(C)=O)[C@H]3COC(=O)[C@H]23)OCO4)cc(OC)c1OC", "recorded number": 1.01}
{"molecule": "CN(C)CCC=C1c2ccccc2CCc2ccccc21", "recorded number": 1}
{"molecule": "COc1ccc(-c2cc(=O)c3ccccc3o2)cc1OC", "recorded number": 0.899}
{"molecule": "CNCCC=C1c2ccccc2CCc2ccccc21", "recorded number": 0.978}
{"molecule": "CC1(C)O[C@@H]2CC3C4C[C@H](F)C5=CC(=O)C=C[C@]5(C)[C@@]4(F)[C@@H](O)C[C@]3(C)[C@]2(C(=O)CO)O1 (some centres not stated)", "recorded number": 1.01}

Proceeding to the next molecule to report its normalized growth.
For this molecule ( COc1cc2cc[n+]3cc4c(OC)c(OC)ccc4cc3c2cc1OC ), measured normalized growth is 0.97

---

# assay procedure: chemical genetic growth profiling, strain panel (AID 1159580)
# protocol conditions: S. cerevisiae deletion strains, growth OD, locus YLL001W, strain dnm1, active compounds read low
About 2,000 (36%) of roughly 5,500 compounds were called active. Another 18% or so got no clear call; they are omitted. The list shows a part of the results.
Consider the following molecules and their measured normalized growth readings.

Past entries and their recorded results:
{"molecule": "S=c1ccss1", "measured metric": "normalized growth", "result": "0.939 (inactive)"}
{"molecule": "CN1CCOC(c2ccccc2)c2ccccc2C1 (stereo not drawn)", "measured metric": "normalized growth", "result": "0.976 (inactive)"}

For this molecule ( CC(C)(O)[C@@H]1CC[C@](C)([C@H]2[C@@H](O)C[C@@]3(C)C4C[C@H](O[C@@H]5O[C@H](CO)[C@@H](O)[C@H](O)[C@H]5O)C5C(C)(C)[C@@H](O[C@@H]6OC[C@@H](O)[C@H](O)[C@H]6O)CC[C@@]56C[C@@]46CC[C@]23C)O1 (stereo partly drawn) ), measured normalized growth is 1 (inactive)

---

Consider the following compounds and their measured normalized growth readings.
# assay procedure: chemical genetic growth profiling, strain panel (AID 1159580)
# protocol conditions: S. cerevisiae deletion strains, growth OD, locus YOR069W, strain VPS5, active compounds read low
About 2,000 (36%) of roughly 5,500 compounds were called active. Roughly 18% stayed inconclusive and do not appear here. The list shows a part of the results.
Write no unit; give the number alone.

{"compound": "Nc1ccc(C(=O)O)c(O)c1", "normalized growth": 1.01}
{"compound": "CC(=O)O[C@H]1C[C@@H](O)C(C)(C)C2C[C@@H](OC(C)=O)[C@]3(C)C(CC[C@@]4(C)[C@H](c5ccoc5)OC(=O)C5OC543)[C@]21C (some centres not stated)", "normalized growth": 0.998}
{"compound": "CC(=O)Nc1cccc(O)c1", "normalized growth": 1}
{"compound": "COc1cccc2c1cc([N+](=O)[O-])c1c(C(=O)O)cc3c(c12)OCO3", "normalized growth": 1.01}
{"compound": "CNCCC=C1c2ccccc2CCc2ccccc21", "normalized growth": 1.01}
{"compound": "CC(=O)O[C@H]1C[C@H](O[C@H]2[C@@H](O)C[C@H](O[C@H]3[C@@H](O)C[C@H](O[C@H]4CC[C@@]5(C)C(CCC6C5C[C@@H](O)[C@]5(C)[C@@H](C7=CC(=O)OC7)CC[C@]65O)C4)O[C@@H]3C)O[C@@H]2C)O[C@H](C)[C@H]1O[C@@H]1O[C@H](CO)[C@@H](O)[C@H](O)[C@H]1O (some centres not stated)", "normalized growth": 1.01}

Proceeding to the next compound to report its normalized growth.
For this compound ( CN(C)CCC=C1c2ccccc2CCc2ccccc21 ), measured normalized growth is 1.01

---

# assay procedure: chemical genetic growth profiling, strain panel (AID 1159580);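 note: tested at 20 µM; growth read once vehicle control cultures reached saturation at 30 °C; 1 = growth at the plate median or of vehicle wells; lower values mean less growth of the strain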
# protocol conditions: S. cerevisiae deletion strains, growth OD, locus YOR316C, strain cot1, active compounds read low
About 2,000 (36%) of roughly 5,500 compounds were called active. About 18% were inconclusive and are not listed. Some of the results follow.
measured metric: normalized growth
Write no unit; give the number alone.

{"molecule": "CCCCCCCCCc1ccc(O)cc1", "normalized growth": 0.799}
{"molecule": "O=C(O)/C=C(\\CC(=O)O)C(=O)O", "normalized growth": 0.97}
{"molecule": "COc1ccc(C(=O)/C=C/c2ccccc2)cc1", "normalized growth": 0.966}
{"molecule": "CCC1C2CC3C4N(C)c5ccccc5C45CC(C2C5OC(C)=O)N3C1OC(C)=O (centres undefined)", "normalized growth": 1.02}
{"molecule": "CCCCCCc1ccc(O)cc1O", "normalized growth": 0.956}
{"molecule": "CSc1ccc2c(c1)C(N1CCN(C)CC1)Cc1ccccc1S2 (centres undefined)", "normalized growth": 0.986}
{"molecule": "O=c1[nH]c2cc(Cl)c(Cl)cc2[nH]c1=O", "normalized growth": 1.02}
{"molecule": "CN1CCN2c3ccccc3Cc3ccccc3C2C1 (centres undefined)", "normalized growth": 0.989}

For this molecule ( COc1ccc(-c2coc3cc(O)cc(O)c3c2=O)cc1 ), measured normalized growth is 0.636

For this molecule ( COc1cc2c3cc1Oc1cc(ccc1O)C[C@@H]1c4c(cc(OC)c(O)c4Oc4ccc(cc4)C[C@@H]3N(C)CC2)CC[N+]1(C)C ), measured normalized growth is 1

---

Consider the following compounds and their measured normalized growth readings.
# assay procedure: chemical genetic growth profiling, strain panel (AID 1159580);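 note: tested at 20 µM; growth read once vehicle control cultures reached saturation at 30 °C; 1 = growth at the plate median or of vehicle wells; lower values mean less growth of the strain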
# protocol conditions: S. cerevisiae deletion strains, growth OD, locus YIL066C, strain RNR3, active compounds read low
Among all 5,500 compounds or so, about 2,000 (36%) were called active. About 18% were inconclusive and are not listed. The list shows a part of the results.
Write no unit; give the number alone.

Past entries and their recorded results:
{"compound": "CN1CCOC(c2ccccc2)c2ccccc2C1 (centres undefined)", "measured metric": "normalized growth", "recorded number": 1.01}
{"compound": "NCCc1cccc(O)c1", "measured metric": "normalized growth", "recorded number": 0.996}

For this compound ( CCOC(=O)C1C(C=C(C)C)C1(C)C (centres undefined) ), measured normalized growth is 0.996

For this compound ( CC(=O)OC1CC2C(C)(C)CCCC2(C)C2CCC3(C)C(c4ccoc4)OC(=O)C4OC43C12C (centres undefined) ), measured normalized growth is 1

For this compound ( CC(C)(Oc1ccc(Cl)cc1)C(=O)O ), measured normalized growth is 0.99

For this compound ( COc1c(O)cccc1O ), measured normalized growth is 1.01

For this compound ( Cn1c(=O)c2[nH]c(C3CCCC3)nc2n(C)c1=O ), measured normalized growth is 1

For this compound ( O=c1c2ccccc2[se]n1-c1ccccc1 ), measured normalized growth is 0.0543

For this compound ( C=CCc1ccccc1OCC(O)CNC(C)C (centres undefined) ), measured normalized growth is 1.01

For this compound ( CC(=O)Oc1cc(OC(C)=O)c2c(=O)c(-c3ccccc3)coc2c1 ), measured normalized growth is 1.02

For this compound ( CCC(/C=C/[C@@H](C)[C@H]1CCC2C3CC=C4C[C@@H](O)CC[C@]4(C)C3CC[C@@]21C)C(C)C (some centres undefined) ), measured normalized growth is 1

For this compound ( CC(=O)O[C@@H]1CC2C(C)(C)C(=O)CC[C@]2(C)C2CC[C@@]3(C)[C@H](c4ccoc4)OC(=O)C4OC43[C@@]21C (some centres undefined) ), measured normalized growth is 0.982

For this compound ( CC(=O)N(O)CCCCCNC(=O)CCC(=O)N(O)CCCCCNC(=O)CCC(=O)N(O)CCCCCN ), measured normalized growth is 1.01

For this compound ( O=c1c(-c2cc(O)c(O)c(O)c2)coc2cc(O)c(O)c(O)c12 ), measured normalized growth is 0.774

---

# assay procedure: chemical genetic growth profiling, strain panel (AID 1159580);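 note: tested at 20 µM; growth read once vehicle control cultures reached saturation at 30 °C; 1 = growth at the plate median or of vehicle wells; lower values mean less growth of the strain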
# protocol conditions: S. cerevisiae deletion strains, growth OD, locus YDR101C, strain arx1
Screen size: about 5,500 compounds; about 2,000 (36%) were called active. Roughly 18% stayed inconclusive and do not appear here. Rule as the data show it: active = normalized growth mostly below about 0.91 (no sharp cut-off); inconclusive = no clear call, values can overlap the other calls; inactive = mostly above about 0.92. This is one part of the list.
Respond using exactly one of the listed classes: active, inactive

{"compound": "O=C(O)c1nc2cc(Cl)c(Cl)cc2[nH]c1=O", "class name": "inactive"}

### Prompt Returns: the outcome recorded for CC(C)c1ccc2c(c1O)CC[C@H]1C3=C(CC[C@]21C)C(=O)OC3 in this assay.
### Response inactive

### Prompt Returns: the outcome recorded for CC(=O)O[C@@H]1CC2C(C)(C)[C@H](O)C[C@H](O)[C@]2(C)C2CC[C@@]3(C)[C@H](c4ccoc4)OC(=O)[C@H]4O[C@]43[C@@]21C (stereo not given in full) in this assay.
### Response inactive

### Prompt Returns: the outcome recorded for CC(=O)O[C@H]1C[C@@]2(C)[C@H](c3ccoc3)OC(=O)[C@H]3O[C@]32[C@@]2(C)C1[C@]1(C)C(C[C@H]2OC(C)=O)C(C)(C)[C@H](OC(C)=O)C[C@@H]1OC(C)=O (stereo not given in full) in this assay.
### Response inactive

### Prompt Returns: the outcome recorded for COc1ccc2cc3[n+](cc2c1OC)CCc1cc2c(cc1-3)OCO2 in this assay.
### Response active

Hey, just so you know, these numbers are from PubChem BioAssay AID1159580.
